These data points were gathered from paper PMC8878317.

test system: P. falciparum MMV019721-resistant lines (3D7-A10 or Dd2-B2 derived); test: Dose-response assay of MMV019721-selected resistant lines (bulk cultures and clones); format: cell-based; conditions: Plasmodium falciparum, read-out: MMV019721 mean EC50 (nM) ± SD (n), selection 8, Dd2-B2, clone A3, AcAS CNV; AP2-I CNV
QUANTITY_NAME: EC50 (nM)

{"MOLECULE_SMILES": "CCN(CC)S(=O)(=O)c1ccc(Cl)c(C(=O)Nc2ccc3nc(C)sc3c2)c1", "UNIT_OF_MEASUREMENT": "nM", "OBSERVED_MEASUREMENT": 1400}
